Quick list: relative viability per entry.
- Test system: NCI-H1437
- ASSAY COMMENT: relative viability (nuclei count vs DMSO), 5 days (fraction); higher = more cells survive
- MEASUREMENT CONTEXT: first compound 2.53 µM
Write no unit; give the number alone.

Consider the worked cases shown below.
{"columns": ["COMPOUND", "relative viability"],
 "data": [
  ["Nc1cccc2c1CN(C1CCC(=O)NC1=O)C2=O (centres undefined) [Lenalidomide] + CC(=O)Nc1cccc(-n2c(=O)n(C3CC3)c(=O)c3c(Nc4ccc(I)cc4F)n(C)c(=O)c(C)c32)c1 [Trametinib] (partner 0.02 µM)", 0.611],
  ["Nc1cccc2c1CN(C1CCC(=O)NC1=O)C2=O (centres undefined) [Lenalidomide] + Cc1nc(NC(=O)N2CCC[C@H]2C(N)=O)sc1-c1ccnc(C(C)(C)C(F)(F)F)c1 [Alpelisib] (partner 2 µM)", 1.09],
  ["Nc1cccc2c1CN(C1CCC(=O)NC1=O)C2=O (centres undefined) [Lenalidomide] + C[C@@H](Oc1cc(-c2cnn(C3CCNCC3)c2)cnc1N)c1c(Cl)ccc(F)c1Cl [Crizotinib] (partner 1 µM)", 1.02]
]}

# context switch: different compound, same relative viability
Dear colleague, I am looking for the recorded relative viability of the following compound: Nc1cccc2c1CN(C1CCC(=O)NC1=O)C2=O (centres undefined) [Lenalidomide] + CCNC(=O)c1noc(-c2cc(C(C)C)c(O)cc2O)c1-c1ccc(CN2CCOCC2)cc1 [Luminespib] (partner 0.01 µM)
1.11

###

Quick list: relative viability per entry.
- Test system: HOP-62
- ASSAY COMMENT: relative viability (nuclei count vs DMSO), 5 days (fraction); higher = more cells survive
- MEASUREMENT CONTEXT: first compound 0.002 µM
Write no unit; give the number alone.

Consider the worked cases shown below.
{"columns": ["MOLECULE", "MEASURED NUMBER"],
 "data": [
  ["CCNC(=O)c1noc(-c2cc(C(C)C)c(O)cc2O)c1-c1ccc(CN2CCOCC2)cc1 [Luminespib] + CC(C)C[C@H](NC(=O)[C@H](Cc1ccccc1)NC(=O)c1cnccn1)B(O)O [Bortezomib] (partner 0.002 µM)", 0.652],
  ["CCNC(=O)c1noc(-c2cc(C(C)C)c(O)cc2O)c1-c1ccc(CN2CCOCC2)cc1 [Luminespib] + N=C(N)NC(=N)NCCc1ccccc1 [Phenformin] (partner 250 µM)", 0.674],
  ["CCNC(=O)c1noc(-c2cc(C(C)C)c(O)cc2O)c1-c1ccc(CN2CCOCC2)cc1 [Luminespib] + CC(=O)Nc1cccc(-n2c(=O)n(C3CC3)c(=O)c3c(Nc4ccc(I)cc4F)n(C)c(=O)c(C)c32)c1 [Trametinib] (partner 0.02 µM)", 0.37],
  ["CCNC(=O)c1noc(-c2cc(C(C)C)c(O)cc2O)c1-c1ccc(CN2CCOCC2)cc1 [Luminespib] + CS(=O)(=O)CCNCc1ccc(-c2ccc3ncnc(Nc4ccc(OCc5cccc(F)c5)c(Cl)c4)c3c2)o1 [Lapatinib] (partner 2 µM)", 1.13]
]}

# context switch: different molecule, same relative viability
Dear colleague, I am looking for the recorded relative viability of the following molecule: CCNC(=O)c1noc(-c2cc(C(C)C)c(O)cc2O)c1-c1ccc(CN2CCOCC2)cc1 [Luminespib] + Nc1nc2[nH]cc(CCc3ccc(C(=O)N[C@@H](CCC(=O)O)C(=O)O)cc3)c2c(=O)[nH]1 [Pemetrexed] (partner 0.2 µM)
0.314
